- protocol-summary: Pharmacokinetic study of tetrabenazine and dihydrotetrabenazine metabolites in plasma after oral tetrabenazine 25 mg tablets
- Type: in vivo, human
- condition-parameters: single-dose oral tetrabenazine 25 mg, fasting, N=08
- Method: A pharmacokinetic study was carried out in healthy adult male volunteers under fasting conditions at a dose of single and multiple oral administration of 25 mg tablets once a day to ascertain the plasma levels of +/−α and +/−β dihydrotetrabenazine. Table 1 summarises the pharmacokinetic data obtained following single-dose oral administration of tetrabenazine at a dose level of 25 mg (fasting, N=08). […]

{"compound": "COc1cc2c(cc1OC)[C@H]1C[C@@H](O)[C@H](CC(C)C)CN1CC2 [(+)-α-DHTBZ]", "Extrapolated AUC": "32.10%"}
{"compound": "COc1cc2c(cc1OC)[C@H]1C[C@H](O)[C@H](CC(C)C)CN1CC2 [(+)-β-DHTBZ]", "Extrapolated AUC": "5.03%"}
{"compound": "COc1cc2c(cc1OC)[C@@H]1C[C@H](O)[C@@H](CC(C)C)CN1CC2 [(−)-α-DHTBZ]", "Extrapolated AUC": "10.59%"}
{"compound": "COc1cc2c(cc1OC)C1CC(=O)C(CC(C)C)CN1CC2 (racemic) [Tetrabenazine]", "Extrapolated AUC": "27.54%"}

---

- protocol-summary: Pharmacokinetic study of tetrabenazine and dihydrotetrabenazine metabolites in plasma after oral tetrabenazine 25 mg tablets
- Type: in vivo, human
- condition-parameters: multiple-dose oral tetrabenazine 25 mg once a day, fasting, N=07

{"molecule": "COc1cc2c(cc1OC)[C@H]1C[C@@H](O)[C@H](CC(C)C)CN1CC2 [(+)-α-DHTBZ]", "Cminss, ng/mL": 0.00}
{"molecule": "COc1cc2c(cc1OC)C1CC(=O)C(CC(C)C)CN1CC2 (racemic)", "Cminss, ng/mL": 0.01}
{"molecule": "COc1cc2c(cc1OC)[C@H]1C[C@H](O)[C@H](CC(C)C)CN1CC2 [(+)-β-DHTBZ]", "Cminss, ng/mL": 5.45}
{"molecule": "COc1cc2c(cc1OC)[C@@H]1C[C@H](O)[C@@H](CC(C)C)CN1CC2 [(−)-α-DHTBZ]", "Cminss, ng/mL": 5.61}

---

- protocol-summary: Pharmacokinetic study of tetrabenazine and dihydrotetrabenazine metabolites in plasma after oral tetrabenazine 25 mg tablets
- Assay type: in vivo, human
- condition-parameters: multiple-dose oral tetrabenazine 25 mg once a day, fasting, N=07
Entries and their Tmaxss Mean values follow.

{"compound": "COc1cc2c(cc1OC)C1CC(=O)C(CC(C)C)CN1CC2 (racemic) [Tetrabenazine]", "readout-units": "h", "Tmaxss Mean": 96.89}
{"compound": "COc1cc2c(cc1OC)[C@H]1C[C@@H](O)[C@H](CC(C)C)CN1CC2 [(+)-α-DHTBZ]", "readout-units": "h", "Tmaxss Mean": 97.18}
{"compound": "COc1cc2c(cc1OC)[C@@H]1C[C@H](O)[C@@H](CC(C)C)CN1CC2 [(−)-α-DHTBZ]", "readout-units": "h", "Tmaxss Mean": 96.96}
{"compound": "COc1cc2c(cc1OC)[C@H]1C[C@H](O)[C@H](CC(C)C)CN1CC2 [(+)-β-DHTBZ]", "readout-units": "h", "Tmaxss Mean": 97.11}

---

- protocol-summary: Pharmacokinetic study of tetrabenazine and dihydrotetrabenazine metabolites in plasma after oral tetrabenazine 25 mg tablets
- Type: in vivo, human
- condition-parameters: male, human, plasma; single-dose oral tetrabenazine 25 mg, fasting, N=08
# half-life per record follows

{"compound": "COc1cc2c(cc1OC)[C@H]1C[C@@H](O)[C@H](CC(C)C)CN1CC2 [(+)-α-DHTBZ]", "readout-units": "h", "half-life": 4.79}
{"compound": "COc1cc2c(cc1OC)C1CC(=O)C(CC(C)C)CN1CC2 (racemic) [Tetrabenazine]", "readout-units": "h", "half-life": 4.35}
{"compound": "COc1cc2c(cc1OC)[C@H]1C[C@H](O)[C@H](CC(C)C)CN1CC2 [(+)-β-DHTBZ]", "readout-units": "h", "half-life": 5.8}
{"compound": "COc1cc2c(cc1OC)[C@@H]1C[C@H](O)[C@@H](CC(C)C)CN1CC2 [(−)-α-DHTBZ]", "readout-units": "h", "half-life": 7.89}

Source of measurements: patent US10668052B2
